These measurements were taken from patent US5734081A.

Biological target: HIV-1 Nucleocapsid Protein (NCp7) (Human immunodeficiency virus type 1 group M subtype B)
Construct: The NCp7 protein containing 2 Zn-fingers and 2 Zn ions is incubated with drug
Assay: Zinc extrusion assay (TSQ fluorescence) from the zinc fingers of HIV-1 nucleocapsid protein (NCp7)
Format: biochemical
Conditions: 10 μM compound, 2.8 μM NCp7, pH 7.4, 26° C., 90 minutes

COMPOUND	% Zinc Extrusion Relative to Control
CCC(C)C(NC(=O)c1ccccc1SSc1ccccc1C(=O)NC(C(=O)O)C(C)CC)C(=O)O (racemic)	87%
CC(SSc1ccccc1C(=O)Nc1ccc(S(N)(=O)=O)cc1)C(=O)NCC(=O)O (stereo not shown)	40%
CC(=O)N[C@@H](CSSc1ccccc1C(=O)Nc1ccc(S(N)(=O)=O)cc1)C(=O)O	77%
NS(=O)(=O)c1ccc(NC(=O)c2cccnc2SSc2ncccc2C(=O)Nc2ccc(S(N)(=O)=O)cc2)cc1	73%
CC(=O)Nc1ccc(SSc2ccc(NC(C)=O)cc2C(N)=O)c(C(N)=O)c1 [Example 9, 2,2'-Dithiobis(5-acetylamino)benzamide]	77%
O=C(N[C@@H](C(=O)O)c1ccccc1)c1ccccc1SSc1ccccc1C(=O)N[C@@H](C(=O)O)c1ccccc1	89%
CC(SSc1ccccc1C(=O)Nc1ccc(S(N)(=O)=O)cc1)C(=O)O (stereo not shown)	70%
NS(=O)(=O)c1ccc(NC(=O)c2ccccc2SSc2ccccc2C(=O)Nc2ccc(S(N)(=O)=O)cc2)cc1	20%
O=C(O)CCNC(=O)c1ccccc1SSc1ccccc1C(=O)NCCC(=O)O	82%
CC(=O)NS(=O)(=O)c1ccc(NC(=O)c2ccccc2SSc2ccccc2C(=O)Nc2ccc(S(=O)(=O)NC(C)=O)cc2)cc1	87%
O=C(Nc1ccc(Cl)cc1Cl)c1ccccc1SSc1ccccc1C(=O)Nc1ccc(Cl)cc1Cl	50%
COC(=O)[C@H](CSSc1ccccc1C(=O)Nc1ccc(S(N)(=O)=O)cc1)NC(C)=O	53%
COC(=O)[C@H](N)C(C)(C)SSc1ccccc1C(=O)Nc1ccc(S(N)(=O)=O)cc1	70%
CN(C(=O)c1ccccc1SSc1ccccc1C(=O)N(C)c1ccc(S(N)(=O)=O)cc1)c1ccc(S(N)(=O)=O)cc1	84%
COc1ccc(SSc2ccc(OC)cc2C(N)=O)c(C(N)=O)c1 [Example 70, 2,2'-Dithiobis[5-methoxy-benzamide]]	74%
COc1cccc(C(=O)Nc2ccc(S(N)(=O)=O)cc2)c1SSc1c(OC)cccc1C(=O)Nc1ccc(S(N)(=O)=O)cc1	67%
NS(=O)(=O)c1cc(Cl)ccc1SSc1ccc(Cl)cc1S(N)(=O)=O	92%
NS(=O)(=O)c1ccc(NC(=O)c2ccc(SSc3ccc(C(=O)Nc4ccc(S(N)(=O)=O)cc4)cc3)cc2)cc1 [Reference Compound, 4,4dithiobis-4sulfamoyl benzanilide, reference compound]	0%
O=C(c1ccccc1)c1ccccc1SSc1ccccc1C(=NO)c1ccccc1	36%
O=C(O)C[C@H](NC(=O)c1ccccc1SSc1ccccc1C(=O)N[C@@H](CC(=O)O)C(=O)O)C(=O)O	73%
CC(=O)Nc1ccc(SSc2ccc(NC(C)=O)cc2C(=O)N[C@@H](CC(C)C)C(=O)O)c(C(=O)N[C@@H](CC(C)C)C(=O)O)c1	65%
NS(=O)(=O)c1ccc(CNC(=O)c2ccccc2SSc2ccccc2C(=O)NCc2ccc(S(N)(=O)=O)cc2)cc1	27%
O=C(c1ccccc1SSc1ccccc1C(=O)N1CCSCC1)N1CCSCC1	67%
CC(C)NS(=O)(=O)c1ccc(NC(=O)c2ccccc2SSc2ccccc2C(=O)Nc2ccc(S(=O)(=O)NC(C)C)cc2)cc1	73%
O=C(Nc1ccc(S(=O)(=O)Nc2ncccn2)cc1)c1ccccc1SSc1ccccc1C(=O)Nc1ccc(S(=O)(=O)Nc2ncccn2)cc1	72%
